Target under test: HLA-A*02 (Homo sapiens, UniProt P04439, D140Y/D185E/D98H/E176V/E277Q/G131W/G231S/I119V/I121R/I166T/I218V/N151K/N90K/P208A/P217A/Q86G/Q94H/R138H/R169H)
Test protocol: MHC binding assay: UV-ligand exchange, beta2m ELISA (peptide exchange yield)
Particulars: binding to HLA-A*02, β2m ELISA
Readout: Peptide exchange (MHC class I binding score, peptide exchange yield)

43 (LLWAGPVTA; listed as Homo sapiens) [compound 43]	+++ (50%-75% = +++)
32 (ILADEAFFSV; listed as Homo sapiens) [compound 32]	+++ (50%-75% = +++)
66 (FITDFYTTV; listed as Homo sapiens) [compound 66]	+++ (50%-75% = +++)
13 (VLRDNIQGI; listed as Homo sapiens) [compound 13]	+++ (50%-75% = +++)
338 (LLYDGKLSSA; listed as Homo sapiens) [compound 338]	++ (20%-49% = ++)
331 (AIWKELISL; listed as Homo sapiens) [compound 331]	+++ (50%-75% = +++)
7 (AAAAKVPEV; listed as Homo sapiens) [compound 7]	+++ (50%-75% = +++)
335 (VLLAAGPSAA; listed as Homo sapiens) [compound 335]	++ (20%-49% = ++)
35 (YVLPKLYVKL; listed as Homo sapiens) [compound 35]	++ (20%-49% = ++)

Fill blank: measured Peptide exchange (MHC class I binding score, peptide exchange yield) of the substance 336 (GLMDGSPHFL; listed as Homo sapiens) [compound 336] is ____.
++ (20%-49% = ++)
